- measured_on: T1, rat GLP-1 receptor (rGLP-1r) (Rattus norvegicus, UniProt P32301)
- T1 construct: expressed in transfected cells; host or cells: HEK293s or CHO cells
- T1 sequence (P32301 22-463): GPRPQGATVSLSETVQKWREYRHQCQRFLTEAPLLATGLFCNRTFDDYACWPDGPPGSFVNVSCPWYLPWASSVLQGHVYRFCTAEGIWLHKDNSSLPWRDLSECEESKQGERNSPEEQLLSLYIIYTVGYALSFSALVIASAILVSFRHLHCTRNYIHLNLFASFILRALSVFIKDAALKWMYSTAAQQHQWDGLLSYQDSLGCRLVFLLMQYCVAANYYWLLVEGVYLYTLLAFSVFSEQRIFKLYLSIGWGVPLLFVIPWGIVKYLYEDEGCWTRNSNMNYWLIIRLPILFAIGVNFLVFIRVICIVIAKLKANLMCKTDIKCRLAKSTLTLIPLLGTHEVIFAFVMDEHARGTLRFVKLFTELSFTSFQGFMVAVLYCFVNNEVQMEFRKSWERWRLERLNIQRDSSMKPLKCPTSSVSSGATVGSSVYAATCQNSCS
- test_name: BSA-cAMP assay, cells expressing rat GLP-1 receptor
- Assay type: cell-based
- condition_context: BSA-cAMP assay; read-out: cAMP activity rGLP1r (EC50)
pEC50: −log10 of the molar value.
measured_quantity: pEC50

A. IP223 (protein, /note=“Description of Artificial Sequence Synthetic Peptide-linker-hinge polypeptide”) YSEGTFTSDVSSYMEEEAIDEFIAWLLKGGAAAGGSGSTASSGSGSATGGGGAATHTCPPCPAPEF
B. IP015 (protein, /note=“Description of Artificial Sequence Synthetic Peptide-linker-hinge polypeptide”) HGEGTFTSDVSSYLEGQAAKEFIAWLVKGAAAGGSGSTASSGSGSATGGGGAATHTCPPCPAPEF
C. IP250 (protein, /note=“Description of Artificial Sequence Synthetic Peptide-linker-hinge polypeptide”) YSEGTFTSDVSIAMDRQAIDEFIAWLLKGGAAAGGSGSTASSGSGSATGGGGAATHTCPPCPAPEF
Sort the molecules on pEC50; start with the lowest figure. Give your ranking as a list of the labels in the requested order.
A, C, B
(A: 7.74, C: 8.66, B: 10.85)
